# System: Canis familiaris
# test_name: Effect on vertebral blood flow (VBF) was studied, after intra arterial administration in anesthetized dogs relative to vinpocetine
# Format: functional, Canis lupus familiaris
value_type: Potency ratio

smiles_data | value_type | reported_value
CCOC(=O)C1=C[C@]2(CC)CCCN3CCc4c(n1c1ccccc41)[C@@H]32 | Potency ratio | 1
CC[C@@]12C=C(C(=O)OCCCCCCCO[N+](=O)[O-])n3c4c(c5ccccc53)CCN(CCC1)[C@H]42 | Potency ratio | 0.82
CC[C@@]12C=C(C(=O)OCCCCCCCCCO[N+](=O)[O-])n3c4c(c5ccccc53)CCN(CCC1)[C@H]42 | Potency ratio | 0.33
CC[C@@]12C=C(C(=O)OCCO[N+](=O)[O-])n3c4c(c5ccccc53)CCN(CCC1)[C@H]42 | Potency ratio | 3.83
CC[C@@]12C=C(C(=O)OCCCCCO[N+](=O)[O-])n3c4c(c5ccccc53)CCN(CCC1)[C@H]42 | Potency ratio | 1.09

* * *

# Test system: Canis familiaris
# test_name: Effect on vertebral blood flow (VBF) was studied, after intra arterial administration in anesthetized dogs relative to vinpocetine
# Assay type: functional, Canis lupus familiaris

smiles_data | Potency ratio
CC[C@@]12C=C(C(=O)OCCCCO[N+](=O)[O-])n3c4c(c5ccccc53)CCN(CCC1)[C@H]42 | 1.25
CC[C@@]12C=C(C(=O)OCCCCCCO[N+](=O)[O-])n3c4c(c5ccccc53)CCN(CCC1)[C@H]42 | 0.99
CC[C@@]12C=C(C(=O)OCCO[N+](=O)[O-])n3c4c(c5ccc(Br)cc53)CCN(CCC1)[C@H]42 | 0.58
CC[C@@]12C=C(C(=O)OCCCCCCCCCCCO[N+](=O)[O-])n3c4c(c5ccccc53)CCN(CCC1)[C@H]42 | 0.33
CC[C@]12CCCN3CCc4c(n(c5cc(Br)ccc45)[C@@](O)(C(=O)OC)C1)[C@@H]32 | 0.17
CC[C@@]12C=C(C(=O)OCCCO[N+](=O)[O-])n3c4c(c5ccccc53)CCN(CCC1)[C@H]42 | 1.85
CC[C@@]12C=C(C(=O)OCCCCCCCCCCO[N+](=O)[O-])n3c4c(c5ccccc53)CCN(CCC1)[C@H]42 | 0.48
CC[C@@]12C=C(C(=O)OCCCCCCCCO[N+](=O)[O-])n3c4c(c5ccccc53)CCN(CCC1)[C@H]42 | 0.35
